Every entry's value here was drawn from the Immune Epitope Database (IEDB).

assayed_target: HLA-A*03:01
protocol: IEDB peptide-MHC binding, purified MHC/direct/fluorescence; filed as Kd, often an IC50 or EC50 that approximates it; bounds were set here for any values at or beyond the usual limits of such assays
applied_conditions: source organism: Influenza A virus (A/Puerto Rico/8/34/Mount Sinai(H1N1))
observed_property: Kd

>>> df
   query_sequence  value_reported
0       RLFFKCIYR          146 nM

###

assayed_target: HLA-B*48:01
protocol: IEDB peptide-MHC binding, purified MHC/direct/fluorescence; filed as Kd, often an IC50 or EC50 that approximates it; bounds were set here for any values at or beyond the usual limits of such assays
applied_conditions: source organism: Campylobacter jejuni subsp. jejuni HB93-13
observed_property: Kd (nM)

>>> df
   query_sequence  observed_property  value_reported
0       WKWFYKKYL                 Kd             271

###

assayed_target: HLA-A*26:01
protocol: IEDB peptide-MHC binding, purified MHC/direct/fluorescence; filed as Kd, often an IC50 or EC50 that approximates it; bounds were set here for any values at or beyond the usual limits of such assays
applied_conditions: source organism: Salmonella enterica
observed_property: Kd

>>> df
   query_sequence  value_reported
0       WTDLYTSMS         ≥ 20 µM

###

assayed_target: HLA-A*26:01
protocol: IEDB peptide-MHC binding, purified MHC/competitive/radioactivity; filed as Kd, often an IC50 or EC50 that approximates it; bounds were set here for any values at or beyond the usual limits of such assays
applied_conditions: source organism: Mammarenavirus juninense
pKd: −log10 of the molar value.
Entries and their pKd values follow.
observed_property: pKd

>>> print(df.to_string())
   query_sequence  assayed_target  observed_property  limit_operator  value_reported
0      SMRSVQRNTV     HLA-A*26:01                pKd               ≤            4.16
1      IAMGYVVSSF     HLA-A*26:01                pKd               =            6.28

###

assayed_target: HLA-A*24:02
protocol: IEDB peptide-MHC binding, purified MHC/direct/fluorescence; filed as Kd, often an IC50 or EC50 that approximates it; bounds were set here for any values at or beyond the usual limits of such assays
applied_conditions: source organism: Influenza A virus (A/South Carolina/1/1918(H1N1))
observed_property: Kd

   query_sequence  observed_property  value_reported
0       RLFFKCIYR                 Kd         ≥ 20 µM

###

assayed_target: HLA-B*54:01
protocol: IEDB peptide-MHC binding, purified MHC/competitive/radioactivity; filed as Kd, often an IC50 or EC50 that approximates it; bounds were set here for any values at or beyond the usual limits of such assays
applied_conditions: source organism: Mammarenavirus lassaense
observed_property: Kd

In [3]: df
Out[3]:
   query_sequence  value_reported
0       CPNCYDSVM          4.5 µM

###

assayed_target: HLA-A*02:01
protocol: IEDB peptide-MHC binding, purified MHC/competitive/fluorescence; filed as Kd, often an IC50 or EC50 that approximates it; bounds were set here for any values at or beyond the usual limits of such assays
applied_conditions: source organism: Escherichia coli 536
observed_property: Kd (µM)

>>> df
   query_sequence   u  value_reported
0       GQLASMVKL  µM          0.0782
